The measured values listed here are drawn from PubChem BioAssay.

# tested-target: Dihydroorotate dehydrogenase (quinone), mitochondrial (Plasmodium falciparum (isolate 3D7)) (UniProt Q08210)
# Sequence (Q08210 whole entry, looked up): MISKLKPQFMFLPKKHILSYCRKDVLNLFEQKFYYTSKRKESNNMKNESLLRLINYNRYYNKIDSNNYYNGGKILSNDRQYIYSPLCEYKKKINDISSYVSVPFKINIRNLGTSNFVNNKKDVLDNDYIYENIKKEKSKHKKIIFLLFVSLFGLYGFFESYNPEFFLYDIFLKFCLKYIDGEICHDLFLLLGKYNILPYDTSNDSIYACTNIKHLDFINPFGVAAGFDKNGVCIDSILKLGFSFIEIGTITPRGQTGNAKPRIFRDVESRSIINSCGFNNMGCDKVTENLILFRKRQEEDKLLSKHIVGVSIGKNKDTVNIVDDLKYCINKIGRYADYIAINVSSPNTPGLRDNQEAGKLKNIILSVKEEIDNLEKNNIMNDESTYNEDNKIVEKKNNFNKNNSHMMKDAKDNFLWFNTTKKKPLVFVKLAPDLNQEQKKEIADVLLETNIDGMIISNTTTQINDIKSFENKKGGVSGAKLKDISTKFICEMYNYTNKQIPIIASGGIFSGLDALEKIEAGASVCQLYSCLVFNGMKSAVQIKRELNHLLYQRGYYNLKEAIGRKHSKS
# protocol-details: inhibition of P. falciparum DHODH – biochemical, C-terminal His tag, absorbance 600 nm, primary screen (AID 1175);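 note: recombinant parasite enzyme with a five histidine tag at its C terminus; test concentration not given here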
# study-conditions: PfDHODH enzyme, DCIP absorbance 600 nm; higher = more signal, called active from +8 up or from −8 down
Assignment: determine reported composite z-score for the given compounds.
One number for each entry.

Here is how some compounds turned out for composite z-score.
# compound, composite z-score
rows = [
    ("CC(C)(C)N1CC=CC23O[C@@H]4/C=C\\CCCOC(=O)C4[C@H]2C(=O)N(CCCO)[C@@H]3C1=O (stereo not given in full)", -2.08),
    ("[N-]=[N+]=Nc1ccccc1[C@@H]1OC(c2ccc(OCCCO)cc2)=N[C@]1(CCS(=O)(=O)c1ccccc1)C(=O)NCC(O)CO (stereo not given in full)", 0.612),
    ("CCCCC(O)C1C=CC2C(=O)N(c3ccccc3)C(=O)C2N1Nc1ccc([N+](=O)[O-])cc1 (stereo not given)", 0.0188),
    ("COc1ccc([Si](C)(C)[C@@H]2[C@@H](CC(=O)N(CCO)Cc3ccccc3)O[C@]3(C(=O)N(Cc4ccc(N5C(=O)c6cccc7cccc5c67)cc4)c4ccccc43)[C@H]2C)cc1", -0.992),
    ("O=C1C=C(c2ccccc2)C(=O)C2=C1CC([C@H]1Oc3ccccc3S(=O)(=O)N3CCC[C@@H]13)=CC2", -1.54),
]

Consider the following items and state reported composite z-score for each.
1. CC(=O)c1ccc(C(O)C2C=CC3C(=O)N(c4ccccc4)C(=O)C3N2Nc2ccc(C(C)C)cc2)cc1 (stereo not given)
2. COc1ccc(C(O)C2C=CC3C(=O)N(C)C(=O)C3N2N(c2ccccc2)c2ccccc2)cc1 (stereo not given)
3. COc1ccccc1CN1C(=O)c2ccccc2[C@](Cc2ccccc2I)(C(=O)NCC(C)C)[C@@H]1c1ccc(CO)cc1
4. CCCC#C[Si](O[C@H](CC)c1cn(Cc2ccccc2)nn1)(C(C)C)C(C)C
5. C=CC[C@@]12N=C(c3ccc(OCCCO)cc3)O[C@@H]1c1ccccc1N(CCC)C2=O
6. NCCCCCCNC(=O)[C@@H]1C[C@@H]2C(=O)N3CCC[C@H]3C(=O)N2[C@@H]1c1cccc(OCCO)c1
7. COCCOC(=O)N1C(=O)[C@@]2(c3cc(C#Cc4ccc(OC)cc4)ccc31)[C@H](c1ccc(OCCO)cc1)N1[C@H](c3ccccc3)[C@H](c3ccccc3)OC(=O)[C@H]1[C@@H]2C(=O)NC[C@H](O)c1ccccc1

Resp:
0.774
-0.472
0.133
-0.205
-0.147
0.101
-1.12

====

# protocol-details: small molecules captured by biotinylated probe aFGF2 – biochemical, small-molecule microarray, fluorescence 635/667, stem cell growth factor project, primary screen (AID 1067);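 note: measures binding of biotinylated aFGF2 protein to printed compounds on slides; z-score merges feature fluorescence and signal-to-noise across triplicate slides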
# study-conditions: higher = more signal
Tick true (1) if composite z-score is -0.07 or greater. Tick false (0) if composite z-score is less than -0.07.

Consider the following illustrative entries.
# smiles-str, qualitative-label
data = [
    ("C=C(CCCC)/C(=C/C[C@H](OC(=O)c1ccncc1)c1ccc(OCCO)cc1)c1cnc2ccccc2c1", "false (0)"),
    ("CN(C)CCCC[C@@H]1NC(=O)[C@H]2C[C@@H](C(=O)O)[C@@H](c3ccc(O)cc3)N2C1=O", "true (1)"),
    ("C=CCOC(=O)[C@H]1[C@@H]2C(=O)O[C@@H](c3ccccc3)[C@@H](c3ccccc3)N2[C@@H](c2ccc(OCCOC(=O)[C@@H]3C[C@@H]4C(=O)N[C@@H](CCCCNC(C)=O)C(=O)N4[C@@H]3c3cccc(OCCO)c3)cc2)[C@]12C(=O)Nc1ccccc12", "true (1)"),
    ("COC(=O)[C@H](Cc1ccccc1)N1CC2=CCCC=C[C@@H]2[C@H]1[C@H](O)Cc1ccccc1", "false (0)"),
    ("O=C1N(CCS(=O)(=O)c2ccccc2)c2ccccc2C[C@]12N=C(c1ccc(OCCCO)cc1)O[C@@H]2c1ccccc1", "true (1)"),
]

Req: Tell me whether composite z-score is at least -0.07 here: O=C(NC1CC1)[C@@H]1c2ccccc2C(=O)N(Cc2cc(C(F)(F)F)cc(C(F)(F)F)c2)[C@H]1c1ccc(CO)cc1
Resp: false (0)

Req: Tell me whether composite z-score is at least -0.07 here: COCCOC(=O)N1C(=O)[C@@]2(c3cc(C#CCCO)ccc31)[C@H](C(N)=O)[C@H]1C(=O)O[C@H](c3ccccc3)[C@H](c3ccccc3)N1[C@@H]2c1ccccc1OCCO
Resp: true (1)

====

Assignment: determine reported z-score for the given compounds.
# protocol-details: JC-1 mitochondrial signal, unstimulated HepG2 cells – cell-based, JC-1 fluorescence, 24 h, 100 nL compound, profiling panel (AID 1167); note: test concentration not given here
# study-conditions: HepG2 mitochondrial potential, higher = more signal
Answers are plain numbers.

Consider the following items and state reported z-score for each.
1. COC(=O)[C@@]1(Cc2ccc(F)cc2)[C@H]2c3cc(C(=O)N(C)C)n(C)c3C[C@H]2CN1C(=O)c1ccccc1
2. [N-]=[N+]=Nc1ccccc1[C@@H]1OC(c2ccc(OCCCO)cc2)=N[C@]1(CCS(=O)(=O)c1ccccc1)C(=O)NCC(O)CO (some centres undefined)
3. COc1cc(OC)c(C(O)C2C=CC3C(=O)N(c4ccccc4)C(=O)C3N2Nc2ccc(C(C)C)cc2)cc1Br (centres undefined)

Resp:
1: 0.216; 2: -0.148; 3: -0.115

Looking up C=CCOC(=O)[C@@H]1[C@H]2C(=O)O[C@H](c3ccccc3)[C@H](c3ccccc3)N2[C@H](c2ccc(OCCOC(=O)[C@H]3C[C@H]4C(=O)N5CCC[C@H]5C(=O)N4[C@H]3c3cccc(OCCO)c3)cc2)[C@@]12C(=O)Nc1ccc(I)cc12 , I found its z-score recorded as -2.08

====

# System: Inhibin beta A chain (activin A)
# protocol-details: small molecules binding activin A – biochemical, small-molecule microarray, 635 nm fluorescence scan, primary screen (AID 1107);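 note: mouse activin A protein probed at 4.33 µg/mL on printed slides; score merges bound-protein fluorescence near 667 nm with spot signal-to-noise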
# study-conditions: INHBA, higher = more signal
Tick criterion met if composite z-score is 0.8 or greater. Tick criterion not met if composite z-score is less than 0.8.

Consider the following illustrative entries.
# compound, qualitative-label
rows = [
    ("O=C(NC1CC1)[C@@H]1c2ccccc2C(=O)N(Cc2ccc(OC(F)(F)F)cc2)[C@H]1c1ccc(CO)cc1", "criterion not met"),
    ("COC(=O)C(CC#Cc1ccc2c(c1)[C@]1(C(=O)N2)[C@H](c2ccccc2OCCO)N2[C@H](c3ccccc3)[C@H](c3ccccc3)OC(=O)[C@H]2[C@@H]1C(=O)N1CCc2cc(OC)c(OC)cc2C1)C(=O)OC", "criterion not met"),
    ("COC(=O)[C@@]1(Cc2ccc(F)cc2)[C@H]2c3cc(C(=O)N4CCCC4)n(CCc4ccccn4)c3C[C@H]2CN1C(=O)c1ccccc1", "criterion met"),
    ("C=C(C)[C@@H]1CC=C(C(O)C2C=CC3C(=O)N(c4ccccc4)C(=O)C3N2Nc2ccc([N+](=O)[O-])cc2)CC1 (stereo partly specified)", "criterion met"),
]

Lab note: next compound to report on.
Req: Tell me whether composite z-score is at least 0.8 here: COc1ccc([Si](C)(C)[C@H]2[C@H](CCO)O[C@@]3(C(=O)N(Cc4cccc(N(C=O)c5ccccc5)c4)c4ccccc43)[C@@H]2C)cc1
Resp: criterion not met

====

# tested-target: Neurogenic locus notch homolog protein 2 (Homo sapiens)
# protocol-details: small molecules binding Notch2 protein – biochemical, small-molecule microarray, 635 nm fluorescence, stem cell growth factors, primary screen (AID 1073)
# study-conditions: higher = more signal
measured-parameter: composite z-score
One number for each entry.

Here is how some molecules turned out for composite z-score.
# molecule, composite z-score
data = [
    ("C=CCOC(=O)[C@H]1[C@@H]2C(=O)O[C@@H](c3ccccc3)[C@@H](c3ccccc3)N2[C@@H](c2ccc(OCCOC(=O)[C@@H]3C[C@@H]4C(=O)N[C@@H](CCCCNC(C)=O)C(=O)N4[C@@H]3c3cccc(OCCO)c3)cc2)[C@]12C(=O)Nc1ccccc12", 0.717),
    ("O=C(NCc1ccccc1)[C@@H]1c2ccccc2C(=O)N(Cc2cc(C(F)(F)F)cc(C(F)(F)F)c2)[C@H]1c1ccc(CO)cc1", 0.685),
    ("[N-]=[N+]=Nc1ccccc1[C@@H]1OC(c2ccc(OCCCO)cc2)=N[C@]1(CCS(=O)(=O)c1ccccc1)C(=O)NCC(O)CO (some centres undefined)", 0.209),
    ("COCCOC(=O)N1C(=O)[C@@]2(c3cc(C#CC4(O)CCCCCC4)ccc31)[C@H](c1ccc(O)cc1)N1[C@H](c3ccccc3)[C@H](c3ccccc3)OC(=O)[C@H]1[C@@H]2C(=O)N1CCCCCCC1", 0.547),
]

Consider the following items and state reported composite z-score for each.
1. CCCNC(=O)[C@@]1(Sc2ccc(C)cc2)CC(=O)N(Cc2ccccc2Cl)[C@@H]1c1ccc(CO)cc1I
2. O=C1O[C@@H](c2ccccc2)[C@@H](c2ccccc2)N2[C@@H](c3ccc(OCCO)cc3)[C@]3(C(=O)Nc4ccc(C#CC5(O)CCCCCC5)cc43)[C@@H](C(=O)Nc3nc4ccccc4s3)[C@H]12
3. Cc1ccc(S[C@]2(C(=O)NCCCN(C)C)CC(=O)N(Cc3ccccc3C(F)(F)F)[C@@H]2c2ccc(CO)cc2I)cc1
4. [N-]=[N+]=Nc1ccccc1C[C@]1(C(=O)N2CCOCC2)N=C(c2ccc(OCCCO)cc2)O[C@H]1c1ccccc1N=[N+]=[N-]
5. COC(=O)C[C@H]1O[C@@]2(C[C@@H]1[Si](C)(C)C)C(=O)N(C)c1ccccc12

Resp:
-1.13
1.46
-0.733
1.5
0.833

Consider the following items and state reported composite z-score for each.
1. O=C(NCCN1CCOCC1)[C@@H]1c2ccccc2C(=O)N(Cc2ccccc2C(F)(F)F)[C@H]1c1ccc(CO)cc1
2. O=C1C2C=CC(C(O)C3CCCCC3)N(n3cnnc3)C2C(=O)N1Cc1ccccc1 (centres undefined)
3. COc1ccc(C(=O)Nc2ccc(CN3C(=O)[C@@]4(O[C@@H](CCn5cc(CCO)nn5)[C@H]([Si](C)(C)c5ccc(OC)cc5)[C@H]4C)c4ccccc43)cc2)cc1
4. C=CCC(OC(C)=O)[C@@H]1[C@@H](N(Cc2ccc(-c3cccc(C(F)(F)F)c3)o2)C(=O)c2ccc(-c3ccccc3)cc2)c2cc(OCCCO)ccc2N1C(=O)c1ccc2ccccc2c1 (some centres undefined)
5. COC(=O)[C@@]1(Cc2ccc(F)cc2)[C@H]2c3cc(C(=O)N4CCCC4)n(CCc4ccccn4)c3C[C@H]2CN1C(=O)c1ccccc1

Resp:
1. -1.2
2. 0.884
3. 0.534
4. 0.311
5. 1.43
